Tested on: Bacillus subtilis
Assay: Antibacterial activity against Bacillus subtilis ATCC 6633 at 100 ug/ml after 24 hrs by disc-diffusion method
Format: functional
Details: ATCC 6633, 24 h, read-out: IZ

[
  {
    "query smiles": "COc1cc(/C=C/C(=O)c2ccc(O)cc2)ccc1OCc1nnc(-c2ccc(C)cc2)o1",
    "zone of inhibition at 100 µg/mL / mm": 12
  },
  {
    "query smiles": "COc1cc(/C=C/C(=O)c2ccccc2)ccc1OCc1nnc(COc2ccccc2)o1",
    "zone of inhibition at 100 µg/mL / mm": 12
  },
  {
    "query smiles": "COc1ccc(C(=O)/C=C/c2ccc(OCc3nnc(-c4ccccc4)o3)c(OC)c2)cc1",
    "zone of inhibition at 100 µg/mL / mm": 12
  },
  {
    "query smiles": "COc1cc(/C=C/C(=O)c2ccccc2)ccc1OCc1nnc(-c2ccccc2)o1",
    "zone of inhibition at 100 µg/mL / mm": 13
  },
  {
    "query smiles": "O=C(O)c1cn(C2CC2)c2cc(N3CCNCC3)c(F)cc2c1=O",
    "zone of inhibition at 100 µg/mL / mm": 21
  },
  {
    "query smiles": "COc1ccc(C(=O)/C=C/c2ccc(OCc3nnc(COc4ccccc4)o3)c(OC)c2)cc1",
    "zone of inhibition at 100 µg/mL / mm": 13
  },
  {
    "query smiles": "COc1ccc(C(=O)/C=C/c2ccc(OCc3nnc(-c4ccc(C)cc4)o3)c(OC)c2)cc1",
    "zone of inhibition at 100 µg/mL / mm": 12
  },
  {
    "query smiles": "COc1cc(/C=C/C(=O)c2ccc(O)cc2)ccc1OCc1nnc(-c2ccccc2)o1",
    "zone of inhibition at 100 µg/mL / mm": 13
  },
  {
    "query smiles": "COc1cc(/C=C/C(=O)c2ccc(O)cc2)ccc1OCc1nnc(-c2ccccc2O)o1",
    "zone of inhibition at 100 µg/mL / mm": 16
  },
  {
    "query smiles": "COc1cc(/C=C/C(=O)c2ccc(O)cc2)ccc1OCc1nnc(-c2ccc([N+](=O)[O-])cc2)o1",
    "zone of inhibition at 100 µg/mL / mm": 10
  },
  {
    "query smiles": "COc1ccc(C(=O)/C=C/c2ccc(OCc3nnc(-c4ccccc4O)o3)c(OC)c2)cc1",
    "zone of inhibition at 100 µg/mL / mm": 18
  },
  {
    "query smiles": "COc1cc(/C=C/C(=O)c2ccc(O)cc2)ccc1OCc1nnc(-c2ccc(Cl)cc2)o1",
    "zone of inhibition at 100 µg/mL / mm": 11
  },
  {
    "query smiles": "COc1ccc(C(=O)/C=C/c2ccc(OCc3nnc(-c4ccc(Cl)cc4)o3)c(OC)c2)cc1",
    "zone of inhibition at 100 µg/mL / mm": 12
  },
  {
    "query smiles": "COc1cc(/C=C/C(=O)c2ccccc2)ccc1OCc1nnc(-c2ccccc2O)o1",
    "zone of inhibition at 100 µg/mL / mm": 15
  },
  {
    "query smiles": "COc1cc(/C=C/C(=O)c2ccccc2)ccc1OCc1nnc(-c2ccc(C)cc2)o1",
    "zone of inhibition at 100 µg/mL / mm": 12
  },
  {
    "query smiles": "COc1cc(/C=C/C(=O)c2ccc(O)cc2)ccc1OCc1nnc(COc2ccccc2)o1",
    "zone of inhibition at 100 µg/mL / mm": 14
  },
  {
    "query smiles": "COc1cc(/C=C/C(=O)c2ccccc2)ccc1OCc1nnc(-c2ccc(Cl)cc2)o1",
    "zone of inhibition at 100 µg/mL / mm": 9
  }
]
